Tested on: MILI (PIWIL2) piRISC loaded with L1MC piRNA (26 nt);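 note: 1 nM active piRISC with 0.1 nM target library at 33 °C single turnover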
experiment: pre-steady-state target cleavage rate (min^-1); guide: L1MC piRNA 5'p-UAACUAAAUACUAUGCAAGCUGUAGG; higher = faster piRNA-guided slicing of the target
stated-conditions: auxiliary factor: 500 nM mouse GTSF1
measurement-label: pre-steady-state target cleavage rate

| biosequence | measured-target | reported-result |
| --- | --- | --- |
| UCCUGGAACAGCUGUGCAUAGUAUUUAGUUA | MILI (PIWIL2) piRISC loaded with L1MC piRNA (26 nt) | 0.206 |
| UCCUGGAACAGCUUGCAUAGUAUUGUAGUUA | MILI (PIWIL2) piRISC loaded with L1MC piRNA (26 nt) | 0.151 |
| UCCUGGAUGUCCUUGCAUAGUAUUUGAGUUA | MILI (PIWIL2) piRISC loaded with L1MC piRNA (26 nt) | 0.169 |
| UCCUGGAUGAGCUUGCAAAGUAUUUACAAA | MILI (PIWIL2) piRISC loaded with L1MC piRNA (26 nt) | 0.00757 |
| UCCUGGAUGUGCUUGCAUAGUAUUGUAGUUA | MILI (PIWIL2) piRISC loaded with L1MC piRNA (26 nt) | 0.0838 |
| UCCUGGAUCAGCUUCGAUAGUAUUUAGAAA | MILI (PIWIL2) piRISC loaded with L1MC piRNA (26 nt) | 0.0608 |
| UCCUGGAUCAGCUACGAUAGUAUUUAGUUA | MILI (PIWIL2) piRISC loaded with L1MC piRNA (26 nt) | 0.0475 |

----------
We begin with a simple list: items and their reported pre-steady-state target cleavage rate.
Tested on: MILI (PIWIL2) piRISC loaded with L1MC piRNA (26 nt);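 note: 1 nM active piRISC with 0.1 nM target library at 33 °C single turnover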
experiment: pre-steady-state target cleavage rate (min^-1); guide: L1MC piRNA 5'p-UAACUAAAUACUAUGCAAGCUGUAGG; higher = faster piRNA-guided slicing of the target
stated-conditions: auxiliary factor: 500 nM mouse GTSF1
measurement-label: pre-steady-state target cleavage rate

| biosequence | measured-target | reported-result |
| --- | --- | --- |
| UCCUGGAUGUCGAAGCAUAGUAUUUAGGUA | MILI (PIWIL2) piRISC loaded with L1MC piRNA (26 nt) | 0.00926 |
| UCCUGGUACACGUUGCAUAGUAUUUUCAAA | MILI (PIWIL2) piRISC loaded with L1MC piRNA (26 nt) | 0.02 |
| UCCUCCUACAGCUUGCAUACUAUAUAGUUA | MILI (PIWIL2) piRISC loaded with L1MC piRNA (26 nt) | 0.0619 |
| UCCUGGAUCAACUUGCAUAGUAUUUAGUUA | MILI (PIWIL2) piRISC loaded with L1MC piRNA (26 nt) | 0.265 |
| UCCUGGAACAGCUUGCAUAGUAUUUAGAUUA | MILI (PIWIL2) piRISC loaded with L1MC piRNA (26 nt) | 0.0966 |
| UCCUGGAUGAGCUUGCAUACUAUUUUGUUA | MILI (PIWIL2) piRISC loaded with L1MC piRNA (26 nt) | 0.0073 |
| UCCUGCAACAGCUUGCAAAGUAUUUAGUUA | MILI (PIWIL2) piRISC loaded with L1MC piRNA (26 nt) | 0.166 |

----------
Tested on: MILI (PIWIL2) piRISC loaded with L1MC piRNA (26 nt);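 note: 1 nM active piRISC with 0.1 nM target library at 33 °C single turnover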
experiment: pre-steady-state target cleavage rate (min^-1); guide: L1MC piRNA 5'p-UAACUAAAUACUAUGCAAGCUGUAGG; higher = faster piRNA-guided slicing of the target
stated-conditions: auxiliary factor: none (no GTSF1)

| biosequence | measured-target | pre-steady-state target cleavage rate |
| --- | --- | --- |
| UCCUGGAUGUGCUGUGCAUAGUAUUUAGUUA | MILI (PIWIL2) piRISC loaded with L1MC piRNA (26 nt) | 0.00886 |
| UCCUGCUACAGCUUGGAUAGUAUUUAGUUA | MILI (PIWIL2) piRISC loaded with L1MC piRNA (26 nt) | 0.0119 |
| UCCUGGAACAGCUUGCAUAGUACUUAGUUA | MILI (PIWIL2) piRISC loaded with L1MC piRNA (26 nt) | 0.0101 |
| UCCUGCUACAGCUUGCAUAGUAAUUUAGUUA | MILI (PIWIL2) piRISC loaded with L1MC piRNA (26 nt) | 0.00525 |
| UCCUGGAUGUCGAACGAUAGUUUUAAGUUA | MILI (PIWIL2) piRISC loaded with L1MC piRNA (26 nt) | < 0.0001 |
| UCCUCCUACAGCUUGCUUACUAUUUAGUUA | MILI (PIWIL2) piRISC loaded with L1MC piRNA (26 nt) | 0.00298 |
| UCCUGGAUGAGGAUGCAUAGUAUUUAGUAA | MILI (PIWIL2) piRISC loaded with L1MC piRNA (26 nt) | 0.00444 |

----------
Tested on: EfPiwi piRISC loaded with piRNA #1 (26 nt)
experiment: pre-steady-state target cleavage rate (min^-1); auxiliary factor: 500 nM Ephydatia muelleri Gtsf1; guide: piRNA #1 5'p-UGAGGUAGUAGGUUGUAUAGUAUCCA; higher = faster piRNA-guided slicing of the target
Each item that follows carries a reported pre-steady-state target cleavage rate.

| biosequence | pre-steady-state target cleavage rate |
| --- | --- |
| GGAGACGAUACUAUACAUCGUACUACCUCA | 0.00254 |
| GGAGACGAAACUAUACAACCUACUACCUCA | 0.0619 |
| GGAGACCUUUCUAUACAACCUACUACCUGA | 0.0049 |
| GGAGAGCAUACUAUACAACCAACUACCUCA | 0.00434 |
| GGAGUGGAUACUAUACAAGGUACUACCUCA | 0.00342 |
| GGAGACGUUACUAUAGAACCUACUACCUCA | 0.0026 |
| GGAGAGGAUACUAAACAACCUACUAGCUCA | 0.00242 |
| GGAGAGGAUACCAUACAACCUACUACCUCA | 0.0957 |
| GGAGACGAUACUAUACAUACCUACUACCUCA | 0.00857 |
| GGAGACCUUACUAUACAACCUAGUACCUCA | 0.00384 |
| GGAGAGGUUACUAUACAACCUACAACCUCA | 0.00313 |
| GGAGAGGAAACUAUACAAGCUACUACCUCA | 0.00403 |
| GGAGAGGAUAUCUAUACAACCUACUACCUCA | 0.00594 |

----------
Test system: EfPiwi piRISC loaded with piRNA #1 (26 nt)
experiment: pre-steady-state target cleavage rate (min^-1); auxiliary factor: 500 nM Ephydatia muelleri Gtsf1; guide: piRNA #1 5'p-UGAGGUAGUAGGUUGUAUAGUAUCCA; MIWI and MILI are mouse PIWI proteins and EfPiwi is from a freshwater sponge; tags in brackets are library labels; higher = faster piRNA-guided slicing of the target
Class MET: pre-steady-state target cleavage rate at least 0.006. Class NOT MET: pre-steady-state target cleavage rate below 0.006.

| biosequence | class |
| --- | --- |
| GGAGACCAUACUAUACAACCUCCUACCUCA | NOT MET |
| GGAGACGAUACUUUACAUCCUACUACCUCA | NOT MET |
| GGAGACGAUAGUAUACAACCUAGUACCUCA | NOT MET |
| GGAGACGAUACUAUCACAACCUACUACCUCA | MET |
| GGAGACCUAUCUACUACAACCUACUACCUCA | MET |
| GGAGACGAUACUAUACAACCUAGUACGUCA | NOT MET |
| GGAGACGAUACUAUACAACCUACAACCUGA | NOT MET |
| GGAGACCAUACUAUACAUCCUAGUACCUCA | NOT MET |
| GGAGUGGAUACUAUACAACCUACAACCACA | NOT MET |
| GGAGACCAUACCAUACAACCUACUACCUCA | MET |
| GGAGACCUAUGAUAUGUUCCUACAACGUCA | NOT MET |
| GGAGACCAUACUAUACAACCCUACUACCUCA | MET |
| GGAGAGGAUACUUUACAACGUACUACCUCA | NOT MET |
| GGAGAGGAUACUAUACAACCUUCUACCUCA | MET |
| GGAGUGGAUACUAAUACAACCUACUACCUCA | MET |
| GGAGACCAUACUAUACCAACCUACUACCUCA | MET |
| GGAGAGCAUACUAAACAACCUACUACCUCA | NOT MET |
| GGAGACCAAACUAUACAACCUACUACCUCA | MET |
| GGAGUGGAAACUAUACAACCUACUACCACA | NOT MET |
| GGAGUGGUUACUAAACAACCUACUACCUCA | NOT MET |
| GGAGAGGAUACAAUACAACCUACUACCUCA | MET |
| GGAGACCUAACUCAUACAACCUACUACCUCA | MET |
| GGAGUGCAUACUAUACAACCUACUACCUGA | NOT MET |
| GGAGACCAUACUAUGCAACCUACUACCUCA | MET |
| GGAGUUGAUACUAUACAACCUACUACCUCA | MET |
| GGAGAGCAUACUAUACAUCCUACUACCUCA | NOT MET |
| GGAGACGAUACUAUACAACCUACUGACCUCA | NOT MET |
| GGAGUGGAUACUUACAACCUACUACCUCA | MET |
